Reference for the values: ChEMBL document CHEMBL3400096

Test system: A549
test_name: Antiproliferative activity against human A549 cells assessed as inhibition of absorbance after 72 hrs by MTT assay
Format: functional, cell-based
run_conditions: A549, 72 h
pIC50: −log10 of the molar value.
parameter_measured: pIC50

Example results:
# molecule, parameter_measured, quantitative_result
data = [
    ("Clc1ccc2c(c1)-c1nc3cc(Br)ccc3n1CCO2", "pIC50", 4.13),
    ("FC(F)(F)c1ccc2c(c1)nc1n2CCOc2ccc(Cl)cc2-1", "pIC50", 4.42),
    ("Cc1ccc2c(c1)nc1n2CCOc2ccc(Cl)cc2-1", "pIC50", 4.21),
    ("Clc1ccc2c(c1)-c1nc3ccccc3n1CCO2", "pIC50", 3.97),
    ("Brc1ccc2c(c1)nc1n2CCOc2ccccc2-1", "pIC50", 4.31),
    ("FC(F)(F)c1ccc2c(c1)nc1n2CCOc2ccc(Br)cc2-1", "pIC50", 4.16),
]

I = Cc1ccc2c(c1)-c1nc3cc(F)ccc3n1CCO2
II = Fc1ccc2c(c1)nc1n2CCOc2ccc(Br)cc2-1
q: Smaller pIC50 value? Options are I and II Select an item and report its label.
a: I
(I: 5.55, II: 6.15)

* * *

target_desc: Phosphatidylinositol 4,5-bisphosphate 3-kinase catalytic subunit alpha isoform (Homo sapiens, UniProt P42336)
Sequence (P42336 whole entry, canonical isoform): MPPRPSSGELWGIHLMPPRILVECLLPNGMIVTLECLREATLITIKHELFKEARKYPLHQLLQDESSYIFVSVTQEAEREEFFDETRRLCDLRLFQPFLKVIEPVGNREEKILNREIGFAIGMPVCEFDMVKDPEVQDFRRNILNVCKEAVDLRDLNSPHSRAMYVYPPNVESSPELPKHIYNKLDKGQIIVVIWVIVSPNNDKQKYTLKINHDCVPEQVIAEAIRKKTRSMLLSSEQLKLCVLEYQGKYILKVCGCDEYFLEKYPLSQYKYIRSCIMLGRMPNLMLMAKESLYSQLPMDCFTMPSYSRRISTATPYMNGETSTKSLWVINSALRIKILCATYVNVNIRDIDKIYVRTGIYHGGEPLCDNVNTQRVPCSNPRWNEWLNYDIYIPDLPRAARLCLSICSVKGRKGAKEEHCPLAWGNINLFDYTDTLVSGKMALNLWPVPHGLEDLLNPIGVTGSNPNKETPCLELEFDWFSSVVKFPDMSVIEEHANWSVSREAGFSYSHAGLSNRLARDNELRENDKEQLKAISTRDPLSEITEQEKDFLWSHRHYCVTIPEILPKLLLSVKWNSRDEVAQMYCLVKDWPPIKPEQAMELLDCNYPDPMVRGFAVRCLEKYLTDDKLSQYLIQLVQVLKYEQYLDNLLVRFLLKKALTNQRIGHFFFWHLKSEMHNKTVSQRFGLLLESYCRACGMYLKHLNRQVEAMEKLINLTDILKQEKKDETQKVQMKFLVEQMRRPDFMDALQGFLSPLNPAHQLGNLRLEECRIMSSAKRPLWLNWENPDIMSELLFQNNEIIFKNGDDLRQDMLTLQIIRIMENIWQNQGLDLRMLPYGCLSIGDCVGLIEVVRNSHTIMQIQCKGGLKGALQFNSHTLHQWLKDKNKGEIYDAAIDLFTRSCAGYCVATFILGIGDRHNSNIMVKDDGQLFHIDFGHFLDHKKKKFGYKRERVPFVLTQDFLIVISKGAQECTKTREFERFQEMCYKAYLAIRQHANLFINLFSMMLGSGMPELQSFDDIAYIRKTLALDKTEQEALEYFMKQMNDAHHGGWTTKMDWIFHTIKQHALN
test_name: Inhibition of recombinant PI3Kalpha (unknown origin) using […] as substrate after 3 hrs incubation by competitive fluorescence polarization kinase activity assay
pIC50: −log10 of the molar value.
parameter_measured: pIC50

I = Clc1ccc2c(c1)-c1nc3cc(Cl)ccc3n1CCO2
II = Cc1ccc2c(c1)-c1nc3cc([N+](=O)[O-])ccc3n1CCO2
III = Cc1ccc2c(c1)-c1nc3cc(Br)ccc3n1CCO2
IV = Fc1ccc2c(c1)nc1n2CCOc2ccc(Cl)cc2-1
q: // sort listed items: pIC50 descending Your task in answering is to list the labels in the requested order.
a: II, I, IV, III
(II: 7.80, I: 6.90, IV: 6.55, III: 6.18)

a = Brc1ccc2c(c1)-c1nc3cc(Br)ccc3n1CCO2
b = Cc1ccc2c(c1)-c1nc3cc(C(F)(F)F)ccc3n1CCO2
q: Which gives the smaller pIC50 number: a or b ? # reply format: chosen label
a: b
(b: 6.16, a: 7.04)

I = Fc1ccc2c(c1)nc1n2CCOc2ccc(Br)cc2-1
II = Clc1ccc2c(c1)nc1n2CCOc2ccc(Br)cc2-1
III = Cc1ccc2c(c1)-c1nc3cc(F)ccc3n1CCO2
q: With regard to pIC50, arrange the entries in ascending order, please. Enter labels, ranked according to the request.
a: III, I, II
(III: 6.32, I: 6.74, II: 7.51)

* * *

Tested on: A549
test_name: Antiproliferative activity against human A549 cells assessed as inhibition of absorbance after 72 hrs by MTT assay
Type: functional, cell-based
run_conditions: A549, 72 h
pIC50: −log10 of the molar value.
parameter_measured: pIC50

Solved entries (count: 3):
# smiles_string, pIC50
rows = [
    ("Clc1ccc2c(c1)nc1n2CCOc2ccc(Br)cc2-1", 6.77),
    ("O=[N+]([O-])c1ccc2c(c1)nc1n2CCOc2ccc(Cl)cc2-1", 4.55),
    ("Brc1ccc2c(c1)-c1nc3cc(Br)ccc3n1CCO2", 6.32),
]

a = Cc1ccc2c(c1)-c1nc3cc(C)ccc3n1CCO2
b = c1ccc2c(c1)OCCn1c-2nc2ccccc21
c = Cc1ccc2c(c1)-c1nc3cc([N+](=O)[O-])ccc3n1CCO2
d = Cc1ccc2c(c1)-c1nc3cc(Cl)ccc3n1CCO2
q: Ranking field: pIC50; order: falling. Use the labels to give the requested order.
a: c, a, d, b
(c: 6.96, a: 6.21, d: 4.25, b: 3.87)

* * *

target_desc: Phosphatidylinositol 4,5-bisphosphate 3-kinase catalytic subunit beta isoform (Homo sapiens, UniProt P42338)
Sequence (P42338 whole entry, canonical isoform): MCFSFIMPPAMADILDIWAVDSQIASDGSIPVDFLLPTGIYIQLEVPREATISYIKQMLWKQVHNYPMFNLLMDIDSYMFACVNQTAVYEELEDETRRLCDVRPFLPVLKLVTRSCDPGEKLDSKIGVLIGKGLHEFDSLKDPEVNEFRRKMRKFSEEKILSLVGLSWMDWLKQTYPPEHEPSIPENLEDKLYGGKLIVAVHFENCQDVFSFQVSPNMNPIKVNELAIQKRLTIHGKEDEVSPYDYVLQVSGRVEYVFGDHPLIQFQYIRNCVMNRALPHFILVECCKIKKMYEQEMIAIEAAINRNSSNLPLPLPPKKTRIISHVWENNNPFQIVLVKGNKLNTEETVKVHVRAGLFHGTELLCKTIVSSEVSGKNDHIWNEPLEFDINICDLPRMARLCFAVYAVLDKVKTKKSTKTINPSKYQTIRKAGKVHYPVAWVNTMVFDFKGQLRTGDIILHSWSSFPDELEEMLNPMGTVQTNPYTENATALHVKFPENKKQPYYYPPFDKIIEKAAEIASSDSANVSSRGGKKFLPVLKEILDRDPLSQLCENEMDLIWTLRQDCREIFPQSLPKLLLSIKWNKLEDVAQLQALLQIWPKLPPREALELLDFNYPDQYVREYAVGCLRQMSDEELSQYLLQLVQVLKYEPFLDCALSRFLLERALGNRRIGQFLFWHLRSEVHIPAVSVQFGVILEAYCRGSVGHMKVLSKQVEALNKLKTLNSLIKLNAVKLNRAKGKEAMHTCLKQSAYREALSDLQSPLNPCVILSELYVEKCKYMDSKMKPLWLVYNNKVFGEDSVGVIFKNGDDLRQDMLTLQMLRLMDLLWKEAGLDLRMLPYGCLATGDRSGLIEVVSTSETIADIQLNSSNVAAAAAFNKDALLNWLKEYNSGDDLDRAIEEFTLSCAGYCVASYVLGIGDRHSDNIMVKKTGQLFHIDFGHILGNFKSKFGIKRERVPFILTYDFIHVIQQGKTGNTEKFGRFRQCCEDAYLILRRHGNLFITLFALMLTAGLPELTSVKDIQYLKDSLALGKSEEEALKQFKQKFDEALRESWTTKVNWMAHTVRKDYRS
test_name: Inhibition of recombinant PI3Kbeta (unknown origin) […] after 3 hrs incubation by competitive fluorescence polarization kinase activity assay
pIC50: −log10 of the molar value.
parameter_measured: pIC50

Some solved entries appear below for comparison.
# smiles_string, quantitative_result
data = [
    ("Clc1ccc2c(c1)-c1nc3cc(Cl)ccc3n1CCO2", 6.44),
    ("Cc1ccc2c(c1)-c1nc3cc([N+](=O)[O-])ccc3n1CCO2", 6.74),
    ("Clc1ccc2c(c1)nc1n2CCOc2ccc(Br)cc2-1", 6.73),
    ("Cc1ccc2c(c1)-c1nc3cc(F)ccc3n1CCO2", 6.04),
    ("Cc1ccc2c(c1)-c1nc3cc(C(F)(F)F)ccc3n1CCO2", 5.92),
]

I = Cc1ccc2c(c1)-c1nc3cc(Br)ccc3n1CCO2
II = Fc1ccc2c(c1)nc1n2CCOc2ccc(Cl)cc2-1
q: Hi! Which is lower in terms of pIC50, the first one I or the second one II ? Reply with the label of the item you choose.
a: I

A = Brc1ccc2c(c1)-c1nc3cc(Br)ccc3n1CCO2
B = Fc1ccc2c(c1)nc1n2CCOc2ccc(Br)cc2-1
q: Of the two listed items, A and B , which carries the larger pIC50 figure? To answer, give the label that identifies your chosen option.
a: A
(A: 6.55, B: 6.33)

* * *

Tested on: A549
test_name: Antiproliferative activity against human A549 cells assessed as inhibition of absorbance after 72 hrs by MTT assay
Type: functional, cell-based
run_conditions: A549, 72 h
pIC50: −log10 of the molar value.
parameter_measured: pIC50

A = FC(F)(F)c1ccc2c(c1)nc1n2CCOc2ccccc2-1
B = Clc1ccc2c(c1)-c1nc3cc(Cl)ccc3n1CCO2
C = Fc1ccc2c(c1)nc1n2CCOc2ccc(Cl)cc2-1
D = O=[N+]([O-])c1ccc2c(c1)nc1n2CCOc2ccc(Br)cc2-1
E = Fc1ccc2c(c1)nc1n2CCOc2ccccc2-1
q: Would you mind ranking these compounds by ascending pIC50? Output spec: a listing of the labels in the requested order.
a: E, D, A, C, B
(E: 4.05, D: 4.66, A: 4.94, C: 5.77, B: 6.25)

* * *

target_desc: Phosphatidylinositol 4,5-bisphosphate 3-kinase catalytic subunit gamma isoform (Homo sapiens)
Sequence (P48736 whole entry, canonical isoform): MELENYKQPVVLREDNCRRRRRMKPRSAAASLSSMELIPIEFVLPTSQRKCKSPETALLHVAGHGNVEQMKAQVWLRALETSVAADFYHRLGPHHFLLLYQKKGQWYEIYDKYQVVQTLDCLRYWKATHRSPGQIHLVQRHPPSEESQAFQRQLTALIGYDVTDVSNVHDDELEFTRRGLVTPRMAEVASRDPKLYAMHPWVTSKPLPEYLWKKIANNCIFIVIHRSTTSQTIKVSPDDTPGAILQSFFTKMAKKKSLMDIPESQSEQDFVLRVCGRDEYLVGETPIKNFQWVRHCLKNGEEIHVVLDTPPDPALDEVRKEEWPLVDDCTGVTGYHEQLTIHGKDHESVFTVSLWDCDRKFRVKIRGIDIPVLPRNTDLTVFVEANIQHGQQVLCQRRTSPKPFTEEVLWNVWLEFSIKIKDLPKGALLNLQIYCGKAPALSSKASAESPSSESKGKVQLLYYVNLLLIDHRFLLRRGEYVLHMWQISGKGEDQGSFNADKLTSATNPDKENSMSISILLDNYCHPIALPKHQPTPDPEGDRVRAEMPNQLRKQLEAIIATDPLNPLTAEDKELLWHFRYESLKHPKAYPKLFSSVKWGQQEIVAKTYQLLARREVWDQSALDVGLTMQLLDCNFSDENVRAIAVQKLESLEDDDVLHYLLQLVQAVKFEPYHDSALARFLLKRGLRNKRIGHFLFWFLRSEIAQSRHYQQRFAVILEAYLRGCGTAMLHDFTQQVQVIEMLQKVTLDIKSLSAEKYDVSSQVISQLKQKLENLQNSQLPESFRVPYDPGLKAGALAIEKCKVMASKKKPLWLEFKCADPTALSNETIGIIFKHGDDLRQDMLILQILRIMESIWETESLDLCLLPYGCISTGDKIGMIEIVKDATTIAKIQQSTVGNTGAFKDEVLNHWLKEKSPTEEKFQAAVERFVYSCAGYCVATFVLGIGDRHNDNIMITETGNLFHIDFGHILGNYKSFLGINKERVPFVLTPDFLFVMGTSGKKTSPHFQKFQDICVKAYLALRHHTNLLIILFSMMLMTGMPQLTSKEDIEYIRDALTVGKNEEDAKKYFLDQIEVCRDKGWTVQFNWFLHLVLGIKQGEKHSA
test_name: Inhibition of recombinant PI3Kgamma (unknown origin) using […] as substrate after 3 hrs incubation by competitive fluorescence polarization kinase activity assay
parameter_measured: IC50 (µM)

# smiles_string, endpoint_unit, IC50
records = [
    ("Fc1ccc2c(c1)nc1n2CCOc2ccc(Br)cc2-1", "µM", 27.9),
    ("Brc1ccc2c(c1)-c1nc3cc(Br)ccc3n1CCO2", "µM", 19.5),
    ("Clc1ccc2c(c1)-c1nc3cc(Cl)ccc3n1CCO2", "µM", 24.3),
    ("Fc1ccc2c(c1)nc1n2CCOc2ccc(Cl)cc2-1", "µM", 21.7),
]

* * *

System: A549
test_name: Antiproliferative activity against human A549 cells assessed as inhibition of absorbance after 72 hrs by MTT assay
Type: functional, cell-based
run_conditions: A549, 72 h
pIC50: −log10 of the molar value.
parameter_measured: pIC50

// known answers, use as guide
# smiles_string, pIC50
rows = [
    ("Cc1ccc2c(c1)nc1n2CCOc2ccccc2-1", 4.08),
    ("Brc1ccc2c(c1)-c1nc3ccccc3n1CCO2", 3.89),
]

P = O=c1cc(N2CCOCC2)oc2c(-c3ccccc3)cccc12
Q = Cc1ccc2c(c1)-c1nc3cc(Br)ccc3n1CCO2
q: Which value of pIC50 is smaller, the one for P or the one for Q ? Label of pick, please.
a: P
(P: 4.08, Q: 5.10)

* * *

System: A549
test_name: Antiproliferative activity against human A549 cells assessed as inhibition of absorbance after 72 hrs by MTT assay
Type: functional, cell-based
run_conditions: A549, 72 h
parameter_measured: IC50 (µM)

# smiles_string, parameter_measured, endpoint_unit, quantitative_result
measured = [
    ("O=[N+]([O-])c1ccc2c(c1)nc1n2CCOc2ccccc2-1", "IC50", "µM", 122),
    ("Clc1ccc2c(c1)nc1n2CCOc2ccccc2-1", "IC50", "µM", 77.3),
]

1 = Cc1ccc2c(c1)-c1nc3ccccc3n1CCO2
2 = Cc1ccc2c(c1)nc1n2CCOc2ccc(Br)cc2-1
3 = Cc1ccc2c(c1)-c1nc3cc(C(F)(F)F)ccc3n1CCO2
q: List items by IC50 in falling order. # list labels per requested ordering
a: 1, 2, 3
(1: 148 µM, 2: 92.8 µM, 3: 4.95 µM)
